target: Syk kinase (Homo sapiens, UniProt P43405); construct: purchased; test: Syk kinase inhibition, Caliper LabChip off-chip mobility-shift kinase assay; format: biochemical; conditions: read-out: Syk Enzyme IC50
Collected pIC50 values appear next to each entry.
FYI, pIC50 means -log10 of a concentration in mol per litre.

- CCn1ccc2cc(Nc3cc(C)ccn3)nc(N[C@H]3CCC[C@H]3O)c2c1=O [compound 420]: 7.96
- CC(C)CC(C)Nc1nc(Nc2ccccn2)cc2cc[nH]c(=O)c12 (centres unmarked): 5.50
- CCn1ccc2cc(Nc3cnccn3)nc(N[C@H]3CCC[C@H]3O)c2c1=O [compound 421]: 7.63
- Cc1cc(Nc2nc(-c3cncc(C(=O)N4CCOCC4)c3)cc3cc[nH]c(=O)c23)ccc1C1CCN(C2CC2)CC1: 6.95
- CCN1CCN(CCc2ccc(Nc3nc(Nc4ccc(C)cn4)cc4cc[nH]c(=O)c34)cc2)CC1: 6.37

The compound listed as "C/C=C/c1cc2cc[nH]c(=O)c2c(Nc2ccc(C3CCN(C4CC4)CC3)c(C)c2)n1" has a reported pIC50 of 5.78

The compound listed as COc1cncc(-c2cc3cc[nH]c(=O)c3c(Nc3ccc(C4CCN(C(C)C(N)=O)CC4)c(C)c3)n2)n1 (centres unmarked) has a reported pIC50 of 7.34

The compound listed as "COc1ccc(-c2cc3cc[nH]c(=O)c3c(Nc3ccc(C4CCN(C5CC5)CC4)c(C)c3)n2)cc1OC" has a reported pIC50 of 6.00
